Target: T1, human CD276 protein (human, UniProt Q5ZPR3 29-534)
T1 construct: whole, on cells; for SKOV3 and the other cancer lines the protein is the cells' own; also called B7-H3; B7H3
T1 sequence (looked up): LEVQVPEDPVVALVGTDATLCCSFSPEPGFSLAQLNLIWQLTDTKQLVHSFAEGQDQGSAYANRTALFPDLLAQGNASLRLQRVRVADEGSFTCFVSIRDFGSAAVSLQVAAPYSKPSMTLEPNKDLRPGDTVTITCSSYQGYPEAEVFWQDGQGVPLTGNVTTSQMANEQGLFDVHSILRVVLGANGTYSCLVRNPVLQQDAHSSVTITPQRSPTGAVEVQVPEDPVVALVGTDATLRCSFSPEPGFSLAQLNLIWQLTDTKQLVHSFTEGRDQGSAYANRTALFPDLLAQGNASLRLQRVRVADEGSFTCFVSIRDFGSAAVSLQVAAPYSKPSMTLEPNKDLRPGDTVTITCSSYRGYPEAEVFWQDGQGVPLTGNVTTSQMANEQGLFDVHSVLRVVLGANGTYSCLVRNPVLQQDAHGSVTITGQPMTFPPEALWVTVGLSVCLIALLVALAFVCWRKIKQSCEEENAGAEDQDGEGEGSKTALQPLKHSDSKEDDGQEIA
Assay: FACS on CHO-S-hCD276 cells
The reader will find reported FACS MFI values listed item by item below.

{"Binder": "3-C2-C3-E7 (antibody, V domains shown, mouse monoclonal antibody (hybridoma)) VH: EVQLQQSGPELVKPGASVKISCKTSGYTFTENTMHWVKQSHGKRLEWIGGINPNTGGTTYNQKFKGKATLTVDKSSSTAYMELRSLTSEDSAVYYCARRGTNWEHWYFDVWGAGTTVTVSS VL: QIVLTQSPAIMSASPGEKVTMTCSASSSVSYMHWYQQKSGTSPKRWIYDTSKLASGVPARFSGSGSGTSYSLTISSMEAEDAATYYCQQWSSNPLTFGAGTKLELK", "FACS MFI": 38800}
{"Binder": "28-G2-E6-B10 (antibody, V domains shown, mouse monoclonal antibody (hybridoma)) VH: QVQLQQPGAELVKPGASVKLSCKASGYTFTSYWMHWVKQRPGQGLEWIGMIHPNSDTTDYNEKFKTKATLTVDKSSSTAYMQLSSLTSEDSAVFYCARGGLGPHYFVYWGQGTTLTVSS VL: QAVVTQESALTTSPGGTVILTCRSSTGAVTTSNYASWVQEKPDHLFTGLIGGTSNRAPGVPVRFSGSLIGDKAALTITGAQTEDDAMYFCALWYSPHYVFGGGTKVTVL", "FACS MFI": 56300}
